molecular target: human recombinant CYP1A1 (rCYP1A1) (Homo sapiens); test: CYP1A1 activity assay: inhibition of CEC metabolism (IC50); conditions: IC50
Sequence (P04798 whole entry): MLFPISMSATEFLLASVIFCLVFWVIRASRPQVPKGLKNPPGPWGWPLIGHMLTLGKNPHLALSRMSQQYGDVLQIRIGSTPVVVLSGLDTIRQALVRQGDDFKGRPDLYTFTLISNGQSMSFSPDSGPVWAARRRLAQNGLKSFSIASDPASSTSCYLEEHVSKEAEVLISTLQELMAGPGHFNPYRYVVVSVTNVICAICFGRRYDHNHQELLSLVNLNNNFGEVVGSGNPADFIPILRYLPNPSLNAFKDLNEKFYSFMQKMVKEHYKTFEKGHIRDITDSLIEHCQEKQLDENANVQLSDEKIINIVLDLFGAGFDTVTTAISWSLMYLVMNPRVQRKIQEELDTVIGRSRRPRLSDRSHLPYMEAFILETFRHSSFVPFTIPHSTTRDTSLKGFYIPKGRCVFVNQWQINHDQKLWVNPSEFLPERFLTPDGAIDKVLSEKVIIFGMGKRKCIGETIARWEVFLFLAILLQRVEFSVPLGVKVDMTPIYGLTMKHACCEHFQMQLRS
Below, each entry is listed with its recorded pIC50.
Convention used: pIC50 is expressed as -log10 of the molar concentration.

Sample records with pIC50:
>  <COMPOUND>
C[C@]12CC[C@H](O)CC1=CC[C@@H]1[C@@H]2CC[C@]2(C)C(=O)CC[C@@H]12 [DHEA, dehydroepiandrosterone]

>  <pIC50>
3.89

$$$$
>  <COMPOUND>
C[C@]12CC[C@@H]3c4ccc(O)cc4CC[C@H]3[C@@H]1CC[C@@H]2O [Estradiol, reference compound]

>  <pIC50>
4.37

$$$$
>  <COMPOUND>
C=CC(=C)CCC=C(C)C

>  <pIC50>
4.28

$$$$
>  <COMPOUND>
CC(=O)N1CCN(c2ccc(OCC3COC(Cn4ccnc4)(c4ccc(Cl)cc4Cl)O3)cc2)CC1 (centres unmarked) [Ketoconazole, reference compound]

>  <pIC50>
7.00

$$$$

API: the following record is the query input.
Query :: I'd like to know its pIC50. The compound in question is "C[C@H]1CCCC(=O)CCC/C=C/c2cc(O)cc(O)c2C(=O)O1"
Result :: 6.15
